Ref: patent US5635519A

- Test system: TxB2
- Assay procedure: Suppressing production of thromboxane B2 (TxB2) from rat peritoneal exudation cells
- Format: cell-based
- Experimental setup: A23187 2 μg/ml, read-out: Production suppressing function IC50, TxB2
Structures can show the parent of a compound that is named as a salt.
Endpoint name: IC50 (nM)
Please reply with the bare figure in nM and do not write the unit itself.

Would you please look over these solved cases?
Compound: CNc1nc2c(C(OC(C)=O)c3cccnc3)c(C)c(O)c(C)c2s1 (centres unmarked) [Example 9]
IC50 / nM: 730

Compound: CNc1nc2c(Cc3cccnc3)c(OC)c(O)c(C)c2s1 [Example 21]
IC50 / nM: 1280

Compound: CCNc1nc2c(Cc3cccnc3)c(C)c(O)c(C)c2s1.Cl.Cl [Example 11, dihydrochloride]
IC50 / nM: 100

Compound: Cc1c(O)c(C)c2sc(N)nc2c1Cc1cccnc1 [Example 18, dihydrochloride]
IC50 / nM: 2

Compound: COc1c(O)c(C)c2sc(N)nc2c1Cc1cccnc1 [Example 20]
IC50 / nM: 110

Q: Read the entry CCNc1nc2c(C)c(C)c(O)c(Cc3cccnc3)c2s1 [Example 17] and write its reported IC50.
Ans: 2000

Q: Identify measured IC50 corresponding to CCNc1nc2c(C)c(Cc3cccnc3)c(O)c(C)c2s1 [Example 14]
Ans: 650

Q: Consider the compound CCCNc1nc2c(Cc3cccnc3)c(C)c(O)c(C)c2s1.Cl.Cl [Example 12, dihydrochloride] and give its recorded IC50.
Ans: 90
